# assayed.target: mH4R (Mus musculus, UniProt Q91ZY2)
# Sequence (Q91ZY2 whole entry): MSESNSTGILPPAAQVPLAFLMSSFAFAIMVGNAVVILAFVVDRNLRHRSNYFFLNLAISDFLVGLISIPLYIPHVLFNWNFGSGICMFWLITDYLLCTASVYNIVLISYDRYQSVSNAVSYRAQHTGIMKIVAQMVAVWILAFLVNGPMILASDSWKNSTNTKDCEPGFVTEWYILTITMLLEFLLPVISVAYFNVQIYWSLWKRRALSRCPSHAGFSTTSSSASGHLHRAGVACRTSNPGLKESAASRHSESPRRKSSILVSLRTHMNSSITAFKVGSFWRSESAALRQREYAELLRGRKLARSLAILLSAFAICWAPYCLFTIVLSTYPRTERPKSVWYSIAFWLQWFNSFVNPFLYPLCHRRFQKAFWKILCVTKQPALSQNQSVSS
# experiment: cell-based
# Parameters: gene Hrh4; SF-mH4R-His6: cleavable influenza hemagglutinin signal peptide and FLAG, hexahistidine tag; GTPgammaS: Sf9 membranes co-expressing Galphai2 and Gbeta1gamma2; species or system HEK293T-CRE-Luc stably expressing SF-H4R-His6
# test.conditions: HEK293T-CRE-Luc stably expressing SF-H4R-His6, read-out: mH4R / α
measured.metric: Emax (%)
Answer with a number only, understood to be in %.

For record CN1CCN(c2cc(NCc3c(Cl)cccc3Cl)nc(N)n2)CC1 the listed Emax is 37

Value of measured Emax for the entry c1ncc(CCCC2CCNCC2)[nH]1 : 42

Looking up C[C@H](N)Cc1c[nH]cn1 [compound 3, (S)-α-Methylhistamine] , I see its Emax listed as 82

For record C[C@@H](N)Cc1cnc[nH]1 [compound 2, (R)-α-Methylhistamine] the listed Emax is 98

Short answer for c1cc(Cc2cnc[nH]2)ccn1 : Emax was 87

NCCc1c[nH]cn1 yielded Emax of 100

Cc1nc[nH]c1CCN yielded Emax of 97

Record NC(=NCc1ccc(Cl)cc1)SCCCc1cnc[nH]1 . Reported Emax: 55

For record N#CNC(=NCCCCc1cnc[nH]1)NCCSc1ccccc1 the listed Emax is 51

The value of Emax measured for the molecule N=C(N)SCCc1cnc[nH]1 turned out to be 96

CNCCc1cnc[nH]1 yielded Emax of 97

The recorded Emax for entry c1nc(CC2CCNCC2)c[nH]1 [compound 6, Immepip] equals 95

// field: Emax; key: c1ccc(COCCCc2c[nH]cn2)cc1 ; value = 88

----------
# assayed.target: mH4R (Mus musculus, UniProt Q91ZY2)
# experiment: CRE-luciferase reporter gene assay, HEK293T
# Assay type: cell-based
# Parameters: gene Hrh4; SF-mH4R-His6: cleavable influenza hemagglutinin signal peptide and FLAG, hexahistidine tag
# test.conditions: read-out: mH4R / pEC50 or (pKB) (converted)
measured.metric: log10 of EC50 (log10 of the value in nM)
Please keep in mind that the values are log10 of EC50 expressed in nM.

Just so you know, measured log10 of EC50 for Cc1nc[nH]c1CCN [compound 5, 5(4)-Methylhistamine] came out at 2.13

Recorded result, c1nc(CC2CCNCC2)c[nH]1 [compound 6, Immepip] , log10 of EC50: 2.15

Measured log10 of EC50, c1ncc(CCCC2CCNCC2)[nH]1 [compound 18, VUF 5681] : 3.80

The recorded log10 of EC50 for entry c1ccc(COCCCc2c[nH]cn2)cc1 [compound 11, Proxyfan] equals 2.90

The value of log10 of EC50 measured for the compound CN1CCN(c2cc(N3Cc4ccccc4C3)nc(N)n2)CC1 [compound 21, ST-1012] turned out to be 1.51

The reported log10 of EC50 of the compound c1cc(Cc2cnc[nH]2)ccn1 [compound 7, Immethridine] was 3.05

Consider CNCCc1cnc[nH]1 [compound 4, N^α-Methylhistamine] . Its measured log10 of EC50 is 2.76

In plain terms, N#C/N=C(/NCCCCc1c[nH]cn1)NCCSc1ccccc1 [compound 14] has a documented log10 of EC50 of 2.39

# compound NC(=NCc1ccc(Cl)cc1)SCCCc1cnc[nH]1 [compound 9, Clobenpropit] ; its log10 of EC50 = 2.27

The recorded log10 of EC50 for entry N=C(N)SCCc1cnc[nH]1 [compound 8, Imetit] equals 1.59

----------
# assayed.target: rH4R (Rattus norvegicus, UniProt Q91ZY1)
# Sequence (Q91ZY1 whole entry): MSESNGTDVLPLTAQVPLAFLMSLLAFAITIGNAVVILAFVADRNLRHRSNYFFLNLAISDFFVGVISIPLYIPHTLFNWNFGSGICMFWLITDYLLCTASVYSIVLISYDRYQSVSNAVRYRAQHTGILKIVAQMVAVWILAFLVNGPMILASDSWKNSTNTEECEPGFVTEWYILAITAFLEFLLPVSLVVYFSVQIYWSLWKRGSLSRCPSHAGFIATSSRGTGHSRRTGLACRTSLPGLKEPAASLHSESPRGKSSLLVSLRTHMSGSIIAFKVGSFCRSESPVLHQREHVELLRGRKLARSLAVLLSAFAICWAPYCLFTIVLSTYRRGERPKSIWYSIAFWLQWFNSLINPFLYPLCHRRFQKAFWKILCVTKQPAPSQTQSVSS
# experiment: cell-based
# Parameters: gene Hrh4
# test.conditions: HEK293T-CRE-Luc stably expressing SF-H4R-His6, read-out: rH4R / α
measured.metric: Emax (%)
Write it as a number; the unit % goes unstated.

Entry NC(=NCc1ccc(Cl)cc1)SCCCc1cnc[nH]1 : Emax on rH4R (Rattus norvegicus, UniProt Q91ZY1) = 37

Reported Emax (rH4R (Rattus norvegicus, UniProt Q91ZY1)) for entry Cc1nc[nH]c1CCN is 100

Observed Emax, rH4R (Rattus norvegicus, UniProt Q91ZY1), C[C@H](N)Cc1c[nH]cn1 [compound 3, (S)-α-Methylhistamine] : 69

Entry NCCc1c[nH]cn1 ; assay system rH4R (Rattus norvegicus, UniProt Q91ZY1); Emax recorded at 100

For C[C@@H](N)Cc1cnc[nH]1 [compound 2, (R)-α-Methylhistamine] on rH4R (Rattus norvegicus, UniProt Q91ZY1), measured Emax was 96

----------
# assayed.target: rH4R (Rattus norvegicus, UniProt Q91ZY1)
# experiment: CRE-luciferase reporter gene assay, HEK293T
# Type: cell-based
# Design: gene Hrh4; SF-rH4R-His6: cleavable influenza hemagglutinin signal peptide and FLAG, hexahistidine tag
# test.conditions: read-out: rH4R / pEC50 or (pKB) (converted)
Strictly below 70 nM in EC50: Criterion met. Otherwise: Criterion not met.

Query: Is it true that EC50 reported for N=C(N)SCCc1cnc[nH]1 is less than 70 nM?
Result: Criterion met

Query: Criterion: EC50 strictly below 70 nM. Is it met by c1ccc(COCCCc2c[nH]cn2)cc1 ?
Result: Criterion not met

Query: EC50 strictly < 70 nM for this compound? c1nc(CC2CCNCC2)c[nH]1 [compound 6, Immepip]
Result: Criterion met

Query: Does the reported EC50 of the following compound sit strictly below 70 nM? CN1CCN(c2cc(N3Cc4ccccc4C3)nc(N)n2)CC1
Result: Criterion met

Query: Input Cc1nc[nH]c1CCN ; condition: EC50 strictly below 70 nM. Does it hold?
Result: Criterion not met

Query: Field: below-cutoff. Rule: recorded EC50 strictly less than 70 nM. Subject: c1cc(Cc2cnc[nH]2)ccn1
Result: Criterion not met

Query: Determine whether this compound shows EC50 lower than 70 nM (ties excluded): CNCCc1cnc[nH]1
Result: Criterion not met

Query: hey, is EC50 for NC(=NCc1ccc(Cl)cc1)SCCCc1cnc[nH]1 lower than 70 nM or not?
Result: Criterion not met

----------
Answer each item with its documented Emax.
# assayed.target: rH4R (Rattus norvegicus)
# experiment: cell-based
# Design: gene Hrh4; SF-rH4R-His6: cleavable influenza hemagglutinin signal peptide and FLAG, hexahistidine tag; GTPgammaS: Sf9 membranes co-expressing Galphai2 and Gbeta1gamma2; species or system HEK293T; CRE-luciferase reporter gene assay, inhibition of forskolin-stimulated luminescence, agonist mode
# test.conditions: HEK-293T, read-out: rH4R / α
Just the number please, in %, no unit attached.

Per the records, this molecule ( S=C(NC1CCCCC1)N1CCC(c2c[nH]cn2)CC1 [compound 20, Thioperamide] ) has Emax equal to -20

Memo: Nc1nc2c(c(N3CC[C@@H](N)C3)n1)CCCc1ccccc1-2 [compound 22, A 943931] , reported Emax: -6

Reported Emax of N#CNC(=NCCCCc1cnc[nH]1)NCCSc1ccccc1 [UR-PI376 (14)] : 8

Nc1nc2c(c(N3CCNCC3)n1)CCC1=C2[C@H]2CCCC[C@H]2O1 [compound 23, A 987306] yielded Emax of -8

----------
# assayed.target: rH4R (Rattus norvegicus)
# experiment: cell-based
# Set-up: gene Hrh4
# test.conditions: HEK293T-CRE-Luc stably expressing SF-H4R-His6, read-out: rH4R / α
Give Emax for every item shown.
Respond numerically; units are % and should not be typed.

// field: Emax; key: N=C(N)SCCc1cnc[nH]1 [compound 8, Imetit] ; value = 95

Sure, the documented Emax for c1nc(CC2CCNCC2)c[nH]1 [compound 6, Immepip] is 93

So, CNCCc1cnc[nH]1 [compound 4, N^α-Methylhistamine] ? Its Emax was 98

Just so you know, measured Emax for c1cc(Cc2cnc[nH]2)ccn1 [compound 7, Immethridine] came out at 94

----------
Task for the reader: assign each of the following molecules its reported Emax.
# assayed.target: hH4R (Homo sapiens, UniProt Q9H3N8)
# Sequence (Q9H3N8 whole entry): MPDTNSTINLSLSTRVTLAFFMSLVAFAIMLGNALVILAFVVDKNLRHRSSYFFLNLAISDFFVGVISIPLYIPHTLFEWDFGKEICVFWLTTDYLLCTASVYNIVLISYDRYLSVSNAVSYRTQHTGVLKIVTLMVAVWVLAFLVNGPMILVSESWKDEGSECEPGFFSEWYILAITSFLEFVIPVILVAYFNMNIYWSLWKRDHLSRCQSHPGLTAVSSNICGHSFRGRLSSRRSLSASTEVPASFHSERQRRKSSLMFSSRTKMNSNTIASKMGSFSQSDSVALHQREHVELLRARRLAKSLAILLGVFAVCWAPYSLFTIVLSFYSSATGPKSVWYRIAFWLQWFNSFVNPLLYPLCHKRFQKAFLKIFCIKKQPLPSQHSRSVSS
# experiment: cell-based
# Parameters: gene HRH4; SF-hH4R-His6: cleavable influenza hemagglutinin signal peptide and FLAG, hexahistidine tag; stably expressed in HEK293T with CRE-luc2P reporter
# test.conditions: HEK293T-CRE-Luc stably expressing SF-H4R-His6, read-out: hH4R / α
# value in %; strip the unit string

Item: NC(=NCc1ccc(Cl)cc1)SCCCc1cnc[nH]1 | System: hH4R (Homo sapiens, UniProt Q9H3N8) | Emax: 97

# value of Emax, hH4R (Homo sapiens, UniProt Q9H3N8), item N=C(N)SCCc1cnc[nH]1 = 94

Measured Emax (hH4R (Homo sapiens, UniProt Q9H3N8)), entry c1nc(CC2CCNCC2)c[nH]1 [compound 6, Immepip] : 98

Readout Emax for c1cc(Cc2cnc[nH]2)ccn1 , test system hH4R (Homo sapiens, UniProt Q9H3N8), was 65

Given the molecule CNCCc1cnc[nH]1 and test system hH4R (Homo sapiens, UniProt Q9H3N8), the measured Emax is 98

Value (Emax, hH4R (Homo sapiens, UniProt Q9H3N8)) for record C[C@@H](N)Cc1cnc[nH]1 [compound 2, (R)-α-Methylhistamine] = 103

Measured Emax (hH4R (Homo sapiens, UniProt Q9H3N8)), entry CN1CCN(C2=Nc3cc(Cl)ccc3Nc3ccccc32)CC1 : 130

Assay hH4R (Homo sapiens, UniProt Q9H3N8), sample C[C@H](N)Cc1c[nH]cn1 [compound 3, (S)-α-Methylhistamine] , Emax read: 90

Record for N#CNC(=NCCCCc1cnc[nH]1)NCCSc1ccccc1 under target or system hH4R (Homo sapiens, UniProt Q9H3N8): Emax reported as 102

Reported Emax (hH4R (Homo sapiens, UniProt Q9H3N8)) for entry NCCc1c[nH]cn1 is 100

Item Cc1nc[nH]c1CCN was tested on hH4R (Homo sapiens, UniProt Q9H3N8); the reported Emax is 97

Param item: CN1CCN(c2cc(NCc3c(Cl)cccc3Cl)nc(N)n2)CC1 ; param system: hH4R (Homo sapiens, UniProt Q9H3N8); output Emax: 91

For the molecule c1ccc(COCCCc2c[nH]cn2)cc1 , the measured Emax on hH4R (Homo sapiens, UniProt Q9H3N8) was 68
